Assay: gradient 5% acetonitrile 3 min, to 50% in 2 min, to 85% in 15 min, held 3 min, 100 µL/min
Conditions: column: Zorbax Extend-C18 2.1 x 50 mm; eluents: water / acetonitrile, 0.1% formic acid
Listed here: items and their measured RP-LC retention time.

# molecule, RP-LC retention time (s)
data = [
    ("Cc1cc(=O)n(CC(=O)NCc2ccc3c(c2)OCO3)c(N2CCOCC2)n1", 622),
    ("CCOC(=O)C1=C(CNc2ccc(F)cc2)NC(=O)NC1c1ccccc1 (centres undefined)", 868),
    ("Cc1ccccc1NC(=O)Cn1cnc2c(sc3nc(-c4ccccc4)ccc32)c1=O", 961),
    ("CCC(CC)C(=O)Nc1nc(-c2ccccc2)c(-c2ccccc2)o1", 1040),
    ("O=C(Nc1ccc2c(c1)OCCO2)C(=O)c1cccn1Cc1ccccc1", 1040),
    ("Cc1ccnc(N2CCCC(C(=O)NCCN(CCc3ccccc3)Cc3ccco3)C2)n1 (centres undefined)", 671),
    ("COc1ccc(N2C(=O)CCC(C(=O)N3CCOCC3)C2c2ccc(OC)c(OC)c2)cc1 (centres undefined)", 619),
    ("CCC(C)NC(=O)N1CCN(Cc2nc3cccnc3n2-c2cccc(C)c2)CC1 (centres undefined)", 646),
    ("O=C(Nc1cnc(N2CCCC2)nc1)c1cccc(F)c1", 716),
]
